Test system: Saccharomyces cerevisiae
METHOD_SUMMARY: protein stability index of tFT-peptide fusion (C-terminal peptide) (PSI (0-1 scale)); higher = more stable (slower turnover);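 further: PSI is a weighted mean of sequencing reads over stability bins, variants kept only with over 10 reads, mCherry proximal and sfGFP distal, peptide attached via GGGS linker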
CONDITION_DESCRIPTION: genetic background: wild type; temperature: 30 C
# key: entry, value: protein stability index
The answer should be a number; do not append a unit.

The following sequences have reported results that may help.
>  <SEQ_TEXT>
LSFPFLFSVPFL

>  <RECORDED_VALUE>
0.733

$$$$
>  <SEQ_TEXT>
PAISPPSPPPLP

>  <RECORDED_VALUE>
0.685

$$$$

Reported protein stability index for `LLVLRQYFFFFV` : what is it?
0.295

Reported protein stability index for `PPPPPHSSPFRS` : what is it?
0.694

Reported protein stability index for `SKQNNIEMKKYK` : what is it?
0.741

Reported protein stability index for `YFFDYGVSRVLS` : what is it?
0.584

Reported protein stability index for `GKALPALPSGLL` : what is it?
0.657

Reported protein stability index for `GGLSGSRCTLFW` : what is it?
0.734

Reported protein stability index for `AILFGSSSWVVV` : what is it?
0.659

Reported protein stability index for `GEAKAARNKRMI` : what is it?
0.708

Reported protein stability index for `GLEVGVRGVMGC` : what is it?
0.688

Reported protein stability index for `CGILTWASSSLG` : what is it?
0.688

Reported protein stability index for `SHRRSMTNNKAK` : what is it?
0.705

Reported protein stability index for `FTFLFPLRLLPL` : what is it?
0.347

Reported protein stability index for `WNFVCGVFFATG` : what is it?
0.543

Reported protein stability index for `GRGERDIGVNQS` : what is it?
0.679

Reported protein stability index for `KKKEKKIKKTIK` : what is it?
0.724

Reported protein stability index for `FFFSFSFPFLSF` : what is it?
0.518

---

System: Saccharomyces cerevisiae
METHOD_SUMMARY: protein stability index of tFT-peptide fusion (C-terminal peptide) (PSI (0-1 scale)); higher = more stable (slower turnover)
CONDITION_DESCRIPTION: genetic background: das1 deletion; temperature: 37 C
ASSAY_METRIC: protein stability index
The answer should be a number; do not append a unit.

The following sequences have reported results that may help.
>  <SEQ_TEXT>
FGEDFCHLLWCC

>  <ASSAY_METRIC>
protein stability index

>  <RECORDED_VALUE>
0.725

$$$$
>  <SEQ_TEXT>
RHIPSIILAHVV

>  <ASSAY_METRIC>
protein stability index

>  <RECORDED_VALUE>
0.707

$$$$
>  <SEQ_TEXT>
LSLLILFVLLSF

>  <ASSAY_METRIC>
protein stability index

>  <RECORDED_VALUE>
0.449

$$$$
>  <SEQ_TEXT>
GRVETIEFLFLR

>  <ASSAY_METRIC>
protein stability index

>  <RECORDED_VALUE>
0.525

$$$$

Fill in the recorded protein stability index for this sequence, with Saccharomyces cerevisiae as test system: `VLLVRIFLCWVC`
0.338

Fill in the recorded protein stability index for this sequence, with Saccharomyces cerevisiae as test system: `GGFHWCPSASRG`
0.754

Fill in the recorded protein stability index for this sequence, with Saccharomyces cerevisiae as test system: `GCDVWCLVLRMG`
0.676

Fill in the recorded protein stability index for this sequence, with Saccharomyces cerevisiae as test system: `VVFWWGHLLVSA`
0.113
